TESTED TARGET: T1, hVISTA-ECD 6-His tag (human, UniProt Q9H7M9 33-193)
T1 construct: also called monovalent hVISTA-ECD; human VISTA
T1 sequence (Q9H7M9 other isoform, or with tags, fused parts or gaps limits assumed): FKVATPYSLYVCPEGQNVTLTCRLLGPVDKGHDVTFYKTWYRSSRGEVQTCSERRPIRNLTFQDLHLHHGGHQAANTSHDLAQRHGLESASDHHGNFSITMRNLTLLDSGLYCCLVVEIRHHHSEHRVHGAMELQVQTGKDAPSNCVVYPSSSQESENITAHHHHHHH
EXPERIMENTAL PROTOCOL: SPR 37 C, Ab on Protein A, pH 7.4
Decision: koff >= 0.03 s⁻¹ yields 1, all other cases yield 0.

Solved entries (count: 5):
BINDER	ASSIGNED CATEGORY
P1-077853 (P1-068744 E31S E102Y) (antibody, V domains shown) VH: QVQLVESGGGVVQPGRSLRLSCAASGFTFSSYAMHWVRQAPGKGLEWVAHIWYDGSNKYEADSVKGRFTISRDNSKNTLYLQMNSLRAEDTAVYYCARDSGFYESYYFDYWGQGTLVTVSS VL: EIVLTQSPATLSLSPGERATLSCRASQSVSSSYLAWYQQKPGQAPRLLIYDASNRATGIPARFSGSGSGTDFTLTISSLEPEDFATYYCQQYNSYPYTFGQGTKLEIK	0
P1-077835 (P1-068744 E31S) (antibody, V domains shown) VH: QVQLVESGGGVVQPGRSLRLSCAASGFTFSSYAMHWVRQAPGKGLEWVAHIWYDGSNKYEADSVKGRFTISRDNSKNTLYLQMNSLRAEDTAVYYCARDSGFYESYYFDEWGQGTLVTVSS VL: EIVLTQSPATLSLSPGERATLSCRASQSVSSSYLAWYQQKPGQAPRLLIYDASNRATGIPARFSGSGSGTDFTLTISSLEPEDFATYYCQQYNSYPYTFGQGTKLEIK	0
P1-077851 (P1-068744 E100S E102Y) (antibody, V domains shown) VH: QVQLVESGGGVVQPGRSLRLSCAASGFTFSEYAMHWVRQAPGKGLEWVAHIWYDGSNKYEADSVKGRFTISRDNSKNTLYLQMNSLRAEDTAVYYCARDSGFYSSYYFDYWGQGTLVTVSS VL: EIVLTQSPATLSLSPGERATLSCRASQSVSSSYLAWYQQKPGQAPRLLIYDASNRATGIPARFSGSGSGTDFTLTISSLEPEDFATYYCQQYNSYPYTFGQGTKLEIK	1
P1-077863 (P1-068744 E59Y E102Y) (antibody, V domains shown) VH: QVQLVESGGGVVQPGRSLRLSCAASGFTFSEYAMHWVRQAPGKGLEWVAHIWYDGSNKYYADSVKGRFTISRDNSKNTLYLQMNSLRAEDTAVYYCARDSGFYESYYFDYWGQGTLVTVSS VL: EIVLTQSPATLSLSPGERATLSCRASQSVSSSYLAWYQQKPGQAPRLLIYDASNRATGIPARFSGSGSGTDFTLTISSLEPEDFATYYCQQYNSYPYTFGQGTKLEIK	1
P1-077857 (P1-068744 E31S E100S) (antibody, V domains shown) VH: QVQLVESGGGVVQPGRSLRLSCAASGFTFSSYAMHWVRQAPGKGLEWVAHIWYDGSNKYEADSVKGRFTISRDNSKNTLYLQMNSLRAEDTAVYYCARDSGFYSSYYFDEWGQGTLVTVSS VL: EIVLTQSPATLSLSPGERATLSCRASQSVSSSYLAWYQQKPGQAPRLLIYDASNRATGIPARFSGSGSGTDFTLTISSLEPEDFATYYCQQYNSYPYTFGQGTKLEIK	1

Incoming: Form field: koff at least 0.03 s⁻¹? Entry: P1-077837 (P1-068744 H50I) (antibody, V domains shown) VH: QVQLVESGGGVVQPGRSLRLSCAASGFTFSEYAMHWVRQAPGKGLEWVAIIWYDGSNKYEADSVKGRFTISRDNSKNTLYLQMNSLRAEDTAVYYCARDSGFYESYYFDEWGQGTLVTVSS VL: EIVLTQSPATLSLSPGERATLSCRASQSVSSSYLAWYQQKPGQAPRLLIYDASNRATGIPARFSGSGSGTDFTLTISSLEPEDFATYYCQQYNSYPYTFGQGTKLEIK
Outgoing: 0
